# Tested on: MS2 coat protein
# Protocol notes: apparent KD of MS2 coat protein, switch ON state; designed switch direction (-1 OFF switch, 1 ON switch): -1; higher = weaker reporter binding
# Condition label: FMN input: 0 or 200 uM; Eterna round: R93 (includes R88 designs)
apparent KD of MS2 coat protein reference
Note: unit nM is implicit; provide only the numeric part.

Known apparent KD of MS2 coat protein results, listed for orientation:
Sequence: GAAGAACAUGAGGAUCACCCAUGUCAGGAUAUACAGAAGGGAAUAAUAAAAUCUGGAAGUAGAAGGGACAAGAA [Ex 1 May 46]
Unit: nM
Value reported: 32.5

Sequence: CACGUACAUGAGGAUCACCCAUGUUAGGAUAUGCCGGGUAAGAGAAAACAAAAAAUCAGCAGAAGGAACGAAAC [Bilbo Confounded 18 - Jieux - Exclusion 1]
Unit: nM
Value reported: 28.2

Sequence: AACCCGCUAGGAUAUACAGCAGGGAUUCGAAAACCCACGAAACAUGAGGAUCACCCAUGUAGAAGGAGUAGGGA [Bereatenat]
Unit: nM
Value reported: 22.7

Sequence: GAAUGACUAGGAUAUACAUGAGGAUCACCCAUGUGUAUAAAUAAAUACACAAAAGAAAGUAGAAGGAGUCAAAG [Mat - Exclusion 3 - Mayanna mod - D124]
Unit: nM
Value reported: 20.8

Sequence: GAAAAGUCAGGAUAUAUGCGAAAAAUAAAAAAAAUAAAAACAUAGAAGGGACAUGAGGAUCACCCAUGUUAAAA [Mat - Exclusion 4 - Mayanna - D134]
Unit: nM
Value reported: 41.6

Sequence: AACAGGUGAGGAUAUCGAACAACAACAACAACAACAACAAACGAGAAGGCACAUGAGGAUCACCCAUGUAAGAA [Exclusion 4C]
Unit: nM
Value reported: 19.6

State apparent KD of MS2 coat protein on MS2 coat protein. Entry: AAAGGACGAGGAUAUACAUGAGGAUCACCCAUGUAAAAAACAUAAUAAAAGAACUUGUGUAGAAGGCGUCCAAA [Meechl Ex3 2 R2 v6]
93

State apparent KD of MS2 coat protein on MS2 coat protein. Entry: CUCAAGUCAGGAUAUUAAAGAAAAGAAGAGAAAGAAAAGAAUAAGAAGGGACAUGAGGAUCACCCAUGUAAGAA [EteRNA is fun!]
57.3

State apparent KD of MS2 coat protein on MS2 coat protein. Entry: GUAGUGUGAGGAUAUGAUUAAAAGAAGGGAAAGAGACUGCAUCAGAAGGCACAUGAGGAUCACCCAUGUAUGAA [JR_Exc004_Sub1223]
34.3

State apparent KD of MS2 coat protein on MS2 coat protein. Entry: AAGAAGGAAGGAUAUACAUGAGGAUCACCCAUGUAAAAGAAAGAAAGGGAAAAGAAAAGUAGAAGGUCCAAGAA [Aakheperre Setepenre Osorkon]
25.4

###

# Test system: MS2 coat protein
# Protocol notes: apparent KD of MS2 coat protein; designed switch direction (-1 OFF switch, 1 ON switch): -1; higher = weaker reporter binding
# Condition label: input ligand: FMN 200 uM
Property: apparent KD of MS2 coat protein (nM)
Note: unit nM is implicit; provide only the numeric part.

Known apparent KD of MS2 coat protein results, listed for orientation:
Sequence: CGAGCUUUUUGCUCGUCUUACAUGAGGAUCACCCAUGUCAUACAGAUAGAUAUACGAAAAGUAUAUCUAUCUGUAUG [Mod of sellena's -59.4, -80.7 kcal, A 10%] (Eterna round: R97, puzzle: Sensor, turn-off variant 1)
Property: apparent KD of MS2 coat protein
Unit: nM
Value reported: 23.3
//
Sequence: GGUCUACAUGAGGAUCACCCAUGUUAGGAUAUGCUUCGUCGGGCUAUACACGGCGGAUGUAGAAGGGACCUGGU [Eternabot (L1) Solution 83] (Eterna round: R97, puzzle: Exclusion 1)
Property: apparent KD of MS2 coat protein
Unit: nM
Value reported: 16.7
//
Sequence: CGGUGUAACGUAGGAUAUCAGCGCAACUGACGAUGAGAAGGACGACAUGAGGAUCACCCAUGUGAUUUCUCAAUAUUAUACAUC [Prohibition 87 - Jieux - Exclusion NG 1] (Eterna round: R96, puzzle: Exclusion NG 1)
Property: apparent KD of MS2 coat protein
Unit: nM
Value reported: 511

Look up and report measured apparent KD of MS2 coat protein for this entry: GUCCGACAUGAGGAUCACCCAUGUGAGGAUAUACGAUUAGCUGCUAGGUAGUUAGUAUGUAGAAGGUGCAUGAA [EX1 #74] (Eterna round: R97, puzzle: Exclusion 1)
30.1

Look up and report measured apparent KD of MS2 coat protein for this entry: GUAUAGUGAGUCAGGAUAUUAGAGGACCAGUUUCCUAAGAAGGGACAUGAGGAUCACCCAUGUGCAUAGGACGU [Eternabot (Original) Solution 20] (Eterna round: R97, puzzle: Brourd's mod of Exclusion 4)
20.7

Look up and report measured apparent KD of MS2 coat protein for this entry: AACAGUGUAGGAUAUACAGGGCAAACGGCACCCGUCUCCGGACAUGAGGAUCACCCAUGUAGAAGGACACCUAU [EX2 C.16] (Eterna round: R97, puzzle: Exclusion 2)
246

Look up and report measured apparent KD of MS2 coat protein for this entry: UCGACUACAGUAGGAUAUGUAGGAUAUGUGGUUGAGGAUCACCCAACCACUUCAACGACAGAAGGACAGAAGGACUGACAUCGU [pwkr exNG2 2xFMN 1xF5.4] (Eterna round: R96, puzzle: Exclusion NG 2)
21.5

These data points were gathered from the supplement of paper PMC9170038.
